target: T1, human MSLN-FL-his protein (human, UniProt Q13421 296-580); assay: SPR (Biacore), antibody captured on Protein A chip;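 further: flow cell at 25 °C, antigen injected for 240 s at five concentrations from 200 nM downward, dissociation followed up to 600 s, double-referenced, fitted with Langmuir 1:1 model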
T1 construct: made in HEK293E cells, purified on nickel column; also called hMSLN-FL-his; human MSLN full-length protein; not shown: His tag
T1 sequence (Q13421 other isoform, or with tags, fused parts or gaps): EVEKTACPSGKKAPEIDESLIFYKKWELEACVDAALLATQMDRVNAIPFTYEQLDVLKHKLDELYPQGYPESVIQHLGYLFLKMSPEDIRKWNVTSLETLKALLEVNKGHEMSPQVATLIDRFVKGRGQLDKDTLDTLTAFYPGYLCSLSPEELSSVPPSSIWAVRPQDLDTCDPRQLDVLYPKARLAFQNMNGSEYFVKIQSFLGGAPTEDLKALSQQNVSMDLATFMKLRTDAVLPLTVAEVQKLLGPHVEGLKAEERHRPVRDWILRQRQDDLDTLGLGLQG
assay readout: kon (M⁻¹ s⁻¹)
Report only the number, with the unit M⁻¹ s⁻¹ understood.

{"binder": "S009-F8-8.22 (antibody, human IgG1, kappa, V domains shown, human-murine chimeric antibody, human IgG1/kappa constant regions) VH: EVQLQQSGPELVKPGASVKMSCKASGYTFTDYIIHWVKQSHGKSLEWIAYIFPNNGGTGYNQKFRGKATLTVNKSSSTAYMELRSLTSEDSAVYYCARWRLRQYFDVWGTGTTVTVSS VL: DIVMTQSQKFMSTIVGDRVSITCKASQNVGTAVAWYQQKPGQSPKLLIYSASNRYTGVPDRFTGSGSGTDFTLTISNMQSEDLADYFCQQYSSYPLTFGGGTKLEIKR", "kon [M⁻¹ s⁻¹]": 732000}
{"binder": "S009-F7.53.2 (antibody, human IgG1, kappa, V domains shown, human-murine chimeric antibody, human IgG1/kappa constant regions) VH: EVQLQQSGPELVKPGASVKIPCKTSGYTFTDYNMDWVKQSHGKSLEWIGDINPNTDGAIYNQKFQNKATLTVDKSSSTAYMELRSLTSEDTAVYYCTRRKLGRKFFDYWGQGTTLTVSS VL: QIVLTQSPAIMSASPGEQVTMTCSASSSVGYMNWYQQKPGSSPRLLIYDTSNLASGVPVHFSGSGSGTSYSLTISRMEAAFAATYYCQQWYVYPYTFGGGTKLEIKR", "kon [M⁻¹ s⁻¹]": 199000}
{"binder": "S009-F7.66.12 (antibody, human IgG1, kappa, V domains shown, human-murine chimeric antibody, human IgG1/kappa constant regions) VH: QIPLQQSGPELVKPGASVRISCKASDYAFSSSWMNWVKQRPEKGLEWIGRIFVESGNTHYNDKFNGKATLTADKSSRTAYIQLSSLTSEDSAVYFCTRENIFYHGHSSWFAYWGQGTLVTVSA VL: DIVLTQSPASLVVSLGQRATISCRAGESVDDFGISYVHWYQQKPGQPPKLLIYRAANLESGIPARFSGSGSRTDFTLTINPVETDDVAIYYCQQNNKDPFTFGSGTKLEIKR", "kon [M⁻¹ s⁻¹]": 180000}
{"binder": "S009-F7.33.24 (antibody, human IgG1, kappa, V domains shown, human-murine chimeric antibody, human IgG1/kappa constant regions) VH: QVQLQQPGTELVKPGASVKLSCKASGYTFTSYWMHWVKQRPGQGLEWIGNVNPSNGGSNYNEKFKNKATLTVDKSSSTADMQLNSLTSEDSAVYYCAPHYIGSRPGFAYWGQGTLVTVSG VL: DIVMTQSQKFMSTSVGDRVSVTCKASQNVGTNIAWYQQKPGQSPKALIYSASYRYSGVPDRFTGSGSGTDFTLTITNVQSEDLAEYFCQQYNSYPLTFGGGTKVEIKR", "kon [M⁻¹ s⁻¹]": 498000}

kon in this record for S009-F8-24.14 (antibody, human IgG1, kappa, V domains shown, human-murine chimeric antibody, human IgG1/kappa constant regions) VH: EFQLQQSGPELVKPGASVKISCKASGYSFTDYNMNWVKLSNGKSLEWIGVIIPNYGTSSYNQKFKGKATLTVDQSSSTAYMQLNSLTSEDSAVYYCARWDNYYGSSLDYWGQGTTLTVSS VL: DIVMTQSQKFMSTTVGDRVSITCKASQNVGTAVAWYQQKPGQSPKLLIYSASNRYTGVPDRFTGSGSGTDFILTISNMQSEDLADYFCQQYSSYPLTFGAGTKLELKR : 549000
